target system: IRAK4 (Homo sapiens, UniProt Q9NWZ3)
Sequence (Q9NWZ3 whole entry): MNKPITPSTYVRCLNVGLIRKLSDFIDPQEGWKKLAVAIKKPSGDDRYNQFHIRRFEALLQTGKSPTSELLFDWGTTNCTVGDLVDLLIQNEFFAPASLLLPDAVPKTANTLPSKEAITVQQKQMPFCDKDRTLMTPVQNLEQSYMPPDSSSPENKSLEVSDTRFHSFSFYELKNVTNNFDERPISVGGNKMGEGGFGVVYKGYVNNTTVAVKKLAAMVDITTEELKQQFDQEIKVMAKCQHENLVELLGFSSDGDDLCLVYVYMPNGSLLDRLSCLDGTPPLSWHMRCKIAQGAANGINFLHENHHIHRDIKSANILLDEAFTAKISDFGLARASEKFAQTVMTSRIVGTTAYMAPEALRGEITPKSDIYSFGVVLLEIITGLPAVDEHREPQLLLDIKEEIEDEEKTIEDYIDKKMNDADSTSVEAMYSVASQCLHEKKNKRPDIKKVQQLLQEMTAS
assay summary: OCI-LY-10 degradation assay (western blot, % IRAK4 degraded after 4 hours)
Format: cell-based
Set-up: endogenous in cells; host or cells: OCI-LY10
measurement parameters: OCI-LY10 cells, 4 hours, 0.01 uM compound
measured property: OCI-LY10 % IRAK4 Degradation (0.01 uM)

Example results:
Cn1c(=O)n(C2CCC(=O)NC2=O)c2ccc(CCCOCCOCCNC(=O)c3ccc(-n4cc(NC(=O)c5coc(-c6ccnc(NCC7CC7)c6)n5)c(C(F)F)n4)cc3)cc21 (stereo not drawn) [I-252]; B (>20-50% degradation)
CN(CCOCCOCCCc1ccc2c(c1)C(=O)N(C1CCC(=O)NC1=O)C2=O)C(=O)c1ccc(-n2cc(NC(=O)c3coc(-c4ccnc(NCC5CC5)c4)n3)c(C(N)=O)n2)cc1 (stereo not drawn) [I-228]; A (>50% degradation)
O=C1CCC(N2C(=O)c3ccc(NC4CCN(CCOCCOCCOCCNC(=O)c5ccc(-n6cc(NC(=O)c7coc(-c8ccnc(NCC9CC9)c8)n7)c(C(F)F)n6)cc5)CC4)cc3C2=O)C(=O)N1 (stereo not drawn) [I-272]; C (<20% degradation)
O=C1CCC(N2C(=O)c3ccc(NC4CCN(CCOCCOCCOCCNCc5ccc(-n6cc(NC(=O)c7coc(-c8ccnc(NCC9CC9)c8)n7)c(C(F)F)n6)cc5)CC4)cc3C2=O)C(=O)N1 (stereo not drawn) [I-389]; C (<20% degradation)
NC(=O)c1nn(-c2ccc(CNCCOCCCc3cccc4c3C(=O)N(C3CCC(=O)NC3=O)C4=O)cc2)cc1NC(=O)c1coc(-c2ccnc(NCC(F)(F)F)c2)n1 (stereo not drawn) [I-320]; C (<20% degradation)
O=C1CCC(N2C(=O)c3cccc(OCc4cn(CCOCCOCCNCc5ccc(-n6cc(NC(=O)c7coc(-c8ccnc(NCC9CC9)c8)n7)c(C(F)F)n6)cc5)nn4)c3C2=O)C(=O)N1 (stereo not drawn) [I-344]; C (<20% degradation)

Write down the reported OCI-LY10 % IRAK4 Degradation (0.01 uM) of O=C1CCC(N2C(=O)c3cccc(NC4CCN(CCOCCNCc5ccc(-n6cc(NC(=O)c7coc(-c8ccnc(NCC9CC9)c8)n7)c(C(F)F)n6)cc5)CC4)c3C2=O)C(=O)N1 (stereo not drawn) [I-385] , test system: IRAK4 (Homo sapiens, UniProt Q9NWZ3).
C (<20% degradation)

Try the compound Cn1c(=O)n(C2CCC(=O)NC2=O)c2cccc(CCCOCCOCCNCc3ccc(-n4cc(NC(=O)c5coc(-c6ccnc(NCC(F)(F)F)c6)n5)c(C(N)=O)n4)cc3)c21 (stereo not drawn) [I-328]
A (>50% degradation)

Try the compound O=C1CCC(N2C(=O)c3cccc(NCCOCCN4CCO[C@H](CNCc5ccc(-n6cc(NC(=O)c7coc(-c8ccnc(NCC9CC9)c8)n7)c(C(F)F)n6)cc5)C4)c3C2=O)C(=O)N1 (stereo partly drawn) [I-329]
B (>20-50% degradation)

Try the compound O=C1CCC(N2C(=O)c3ccc(N4CCN(CCOCCOCCNC(=O)c5ccc(-n6cc(NC(=O)c7coc(-c8ccnc(NCC9CC9)c8)n7)c(C(F)F)n6)cc5)CC4)cc3C2=O)C(=O)N1 (stereo not drawn) [I-276]
C (<20% degradation)

Try the compound Cn1cc(-c2nc(C(=O)Nc3cn(-c4ccc(CNCCOCCOCCNc5ccc6c(c5)C(=O)N(C5CCC(=O)NC5=O)C6=O)cc4)nc3C(F)F)co2)cn1 (stereo not drawn) [I-353]
C (<20% degradation)

Try the compound O=C1CCC(N2C(=O)c3cccc(NCCOCCN4CCN(CCOCCNCc5ccc(-n6cc(NC(=O)c7coc(-c8ccnc(NCC9CC9)c8)n7)c(C(F)F)n6)cc5)CC4)c3C2=O)C(=O)N1 (stereo not drawn) [I-348]
C (<20% degradation)

Try the compound CN(CCOCCOCCCc1ccc2c(c1)C(=O)N(C1CCC(=O)NC1=O)C2=O)Cc1ccc(-n2cc(NC(=O)c3coc(-c4ccncc4)n3)c(C(N)=O)n2)cc1 (stereo not drawn) [I-309]
B (>20-50% degradation)

Try the compound CN(CCOCCOCCCc1ccc2c(c1)C(=O)N(C1CCC(=O)NC1=O)C2=O)Cc1ccc(-n2cc(NC(=O)c3coc(-c4ccnc(NCC5CC5)c4)n3)c(C(F)F)n2)cc1 (stereo not drawn) [I-310]
C (<20% degradation)

Try the compound O=C1CCC(N2C(=O)c3cccc(NCCCCCNCCNC(=O)c4ccc(-n5cc(NC(=O)c6coc(-c7ccnc(NCC8CC8)c7)n6)c(C(F)F)n5)cc4)c3C2=O)C(=O)N1 (stereo not drawn) [I-245]
C (<20% degradation)

Try the compound O=C1CCC(N2C(=O)c3cccc(NC4CN(CCOCCOCCNCc5ccc(-n6cc(NC(=O)c7coc(-c8ccnc(NCC9CC9)c8)n7)c(C(F)F)n6)cc5)C4)c3C2=O)C(=O)N1 (stereo not drawn) [I-338]
C (<20% degradation)
